Assay: LD50 (acute toxicity), mouse
Settings: in vivo, ip, Male, i. p.
measured property: LD50 (mg/kg)
Respond numerically; units are mg/kg and should not be typed.

Inquiry: Recall and state the measured LD50 for CC1CNc2c(cccc2S(=O)(=O)N[C@@H](CCCNC(=N)N)C(=O)N2CC[C@@H](C)C[C@@H]2C(=O)O)C1.O (mixture of isomers) [argatroban] .
Reply text: 475

----------
Test: LD50 (acute toxicity), mouse
Conditions: in vivo, iv, Female, i. v.
measured property: LD50

Inquiry: Recall and state the measured LD50 for CC1CNc2c(cccc2S(=O)(=O)N[C@@H](CCCNC(=N)N)C(=O)N2CC[C@@H](C)C[C@@H]2C(=O)O)C1.O (mixture of isomers) .
Reply text: > 81 mg/kg

----------
Assay: LD50 (acute toxicity), rat
Conditions: in vivo, iv, Female, i. v.
measured property: LD50

Inquiry: Recall and state the measured LD50 for CC1CNc2c(cccc2S(=O)(=O)N[C@@H](CCCNC(=N)N)C(=O)N2CC[C@@H](C)C[C@@H]2C(=O)O)C1.O (mixture of isomers) [argatroban] .
Reply text: > 81 mg/kg

----------
Test: LD50 (acute toxicity), mouse
Conditions: in vivo, sc, Female, subc.
measured property: LD50
Write your answer as a measured quantity: the number, then the unit.

Inquiry: Recall and state the measured LD50 for CC1CNc2c(cccc2S(=O)(=O)N[C@@H](CCCNC(=N)N)C(=O)N2CC[C@@H](C)C[C@@H]2C(=O)O)C1.O (mixture of isomers) [argatroban] .
Reply text: 3900 mg/kg

----------
Assay: LD50 (acute toxicity), rat
Settings: in vivo, sc, Male, subc.
measured property: LD50 (mg/kg)
Respond numerically; units are mg/kg and should not be typed.

Inquiry: Recall and state the measured LD50 for CC1CNc2c(cccc2S(=O)(=O)N[C@@H](CCCNC(=N)N)C(=O)N2CC[C@@H](C)C[C@@H]2C(=O)O)C1.O (mixture of isomers) .
Reply text: 700

----------
Assay: LD50 (acute toxicity), mouse
Conditions: in vivo, sc, Male, subc.
measured property: LD50

Inquiry: Recall and state the measured LD50 for CC1CNc2c(cccc2S(=O)(=O)N[C@@H](CCCNC(=N)N)C(=O)N2CC[C@@H](C)C[C@@H]2C(=O)O)C1.O (mixture of isomers) .
Reply text: 3750 mg/kg
